// data source = patent US20240172756A1

System: Staphylococcus aureus
Experiment: MIC in liquid culture, S. aureus
Type: cell-based
Conditions: Methicillin-resistant strain NRS70; paper disk and MIC studies

| molecule | antimicrobial effect |
| --- | --- |
| N#CC(=N[O][Sb]([c]1ccccc1)([c]1ccccc1)([c]1ccccc1)[c]1ccccc1)C(N)=S [SbPh4TCO] | significant effects |
| CN(C)C(=S)C(C#N)=N[O][Sb]([c]1ccccc1)([c]1ccccc1)([c]1ccccc1)[c]1ccccc1 [SbPh4TDCO] | significant effects |

----------
System: Candida albicans
Assay: Antifungal disk diffusion assay, C. albicans
Format: cell-based
Settings: solid compound on paper disk
measured_endpoint: antifungal activity / zone of inhibition in disk assay

| compound | data_value |
| --- | --- |
| N#CC(=NO)C(=O)N1CCOCC1 [H(MCO), reference compound] | No inhibition |
| N#C/C(=N\O)C(N)=O [H(ACO), reference compound] | No inhibition |
| CCOC(=O)/C(C#N)=N/O [H(ECO), reference compound] | No inhibition |

----------
System: Cryptococcus neoformans
Experiment: MIC assay, C. neoformans
Assay type: cell-based
Details: Table 1
measured_endpoint: MIC, C. neoformans (µg/mL)
One number for each entry, in µg/mL.

| structure | MIC, C. neoformans (µg/mL) |
| --- | --- |
| N#CC(=N[O][Sb]([c]1ccccc1)([c]1ccccc1)([c]1ccccc1)[c]1ccccc1)C(N)=O | 18.8 |
| CCOC(=O)C(C#N)=N[O][Sb]([c]1ccccc1)([c]1ccccc1)([c]1ccccc1)[c]1ccccc1 | 10.9 |
| CN(C)C(=S)C(C#N)=N[O][Sb]([c]1ccccc1)([c]1ccccc1)([c]1ccccc1)[c]1ccccc1 | 33.3 |
| N#CC(=N[O][Sb]([c]1ccccc1)([c]1ccccc1)([c]1ccccc1)[c]1ccccc1)C(N)=S | 25 |

Task: Give MIC, C. neoformans only, for N#CC(=N[O][Sb]([c]1ccccc1)([c]1ccccc1)([c]1ccccc1)[c]1ccccc1)C(=O)N1CCOCC1 , using Cryptococcus neoformans data.
Output: 19.8
